Data origin, for the record: ChEMBL document CHEMBL5244205

Measured Target: Mitogen-activated protein kinase kinase kinase 1 (Homo sapiens)
Sequence (Q13233 whole entry): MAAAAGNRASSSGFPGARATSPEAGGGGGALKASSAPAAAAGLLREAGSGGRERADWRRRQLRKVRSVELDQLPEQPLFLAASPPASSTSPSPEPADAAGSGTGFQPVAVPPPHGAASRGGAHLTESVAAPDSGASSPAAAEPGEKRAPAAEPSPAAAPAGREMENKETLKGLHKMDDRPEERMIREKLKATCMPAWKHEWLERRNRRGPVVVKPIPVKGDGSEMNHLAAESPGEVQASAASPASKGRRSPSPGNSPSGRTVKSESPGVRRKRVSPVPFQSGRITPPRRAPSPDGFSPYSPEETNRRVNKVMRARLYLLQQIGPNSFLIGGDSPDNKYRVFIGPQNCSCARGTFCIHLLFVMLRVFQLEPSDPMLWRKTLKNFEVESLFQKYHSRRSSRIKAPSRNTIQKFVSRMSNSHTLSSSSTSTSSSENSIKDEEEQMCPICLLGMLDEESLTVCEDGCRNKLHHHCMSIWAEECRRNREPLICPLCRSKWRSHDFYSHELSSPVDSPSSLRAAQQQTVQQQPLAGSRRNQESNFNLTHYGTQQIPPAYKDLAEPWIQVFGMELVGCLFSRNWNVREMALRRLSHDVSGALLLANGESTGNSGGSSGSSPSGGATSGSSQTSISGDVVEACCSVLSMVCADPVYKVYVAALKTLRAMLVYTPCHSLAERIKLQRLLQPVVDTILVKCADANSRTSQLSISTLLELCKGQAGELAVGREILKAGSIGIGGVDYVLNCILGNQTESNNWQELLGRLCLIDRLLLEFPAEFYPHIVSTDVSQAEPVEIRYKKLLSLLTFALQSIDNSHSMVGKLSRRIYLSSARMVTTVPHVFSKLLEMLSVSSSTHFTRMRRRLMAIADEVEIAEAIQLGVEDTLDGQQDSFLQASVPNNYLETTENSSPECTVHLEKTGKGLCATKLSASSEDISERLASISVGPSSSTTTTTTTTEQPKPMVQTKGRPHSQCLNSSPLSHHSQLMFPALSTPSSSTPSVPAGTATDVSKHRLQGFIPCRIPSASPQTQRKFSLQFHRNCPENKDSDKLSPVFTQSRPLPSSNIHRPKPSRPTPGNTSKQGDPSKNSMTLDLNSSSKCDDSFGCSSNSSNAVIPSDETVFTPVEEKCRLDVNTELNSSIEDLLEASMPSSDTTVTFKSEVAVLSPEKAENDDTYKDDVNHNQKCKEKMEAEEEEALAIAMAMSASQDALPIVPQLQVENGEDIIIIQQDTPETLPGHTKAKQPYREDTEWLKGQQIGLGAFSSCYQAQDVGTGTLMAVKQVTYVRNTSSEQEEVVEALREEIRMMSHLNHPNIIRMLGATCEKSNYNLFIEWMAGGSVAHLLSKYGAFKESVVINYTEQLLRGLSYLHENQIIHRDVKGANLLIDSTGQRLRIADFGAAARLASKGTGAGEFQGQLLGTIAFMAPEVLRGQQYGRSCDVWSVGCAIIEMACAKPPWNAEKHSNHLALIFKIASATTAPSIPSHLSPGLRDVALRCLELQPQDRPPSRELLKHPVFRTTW
Assay Name: Inhibition of MAP3K1 (unknown origin)
Observation Type: IC50

// query Please give the documented IC50 of C[C@@H]1CCN(C(=O)CC#N)C[C@@H]1n1ccc2cnc3[nH]cc(C#N)c3c21
// result > 1000 nM

// query Please give the documented IC50 of C[C@@H]1CCN(C(=O)CC#N)C[C@@H]1n1ccc2cnc3[nH]ccc3c21
// result > 1000 nM

----------
Reported log10 IC50, Tyrosine-protein kinase JAK2 (Homo sapiens).
All values: log10 IC50 [nM].

C[C@@H]1CCN(C(=O)Cn2cnnn2)C[C@@H]1n1c(=O)[nH]c2cnc3[nH]ccc3c21 (racemic): 0.54
C[C@@H]1CCN(C(=O)CC#N)C[C@@H]1n1ccc2cnc3[nH]ccc3c21 (racemic): 0.00
C[C@@H]1CCN(C(=O)N2CCCCC2)C[C@@H]1n1c(=O)[nH]c2cnc3[nH]ccc3c21 (racemic): 0.85

// query Jot down log10 IC50 (Tyrosine-protein kinase JAK2 (Homo sapiens)) of C[C@@H]1CCN(C(=O)CC#N)C[C@@H]1n1ccc2cnc3[nH]ccc3c21 .
// result -0.52

// query Jot down log10 IC50 (Tyrosine-protein kinase JAK2 (Homo sapiens)) of C[C@@H]1CCN(C(=O)CC#N)C[C@@H]1n1cc(C#N)c2cnc3[nH]ccc3c21 (racemic) .
// result 0.34

// query Jot down log10 IC50 (Tyrosine-protein kinase JAK2 (Homo sapiens)) of C[C@@H]1CCN(C(=O)CC#N)C[C@@H]1n1ccc2cnc3[nH]cc(C#N)c3c21 (racemic) .
// result 0.61

// query Jot down log10 IC50 (Tyrosine-protein kinase JAK2 (Homo sapiens)) of C[C@@H]1CCN(c2ccc(C#N)cn2)C[C@@H]1n1c(=O)[nH]c2cnc3[nH]ccc3c21 (racemic) .
// result 0.65

// query Jot down log10 IC50 (Tyrosine-protein kinase JAK2 (Homo sapiens)) of C[C@H]1CCN(C(=O)CC#N)C[C@H]1n1ccc2cnc3[nH]ccc3c21 .
// result 2.59

----------
Assay Name: in vitro
Study Conditions: PAMPA, pH 6.5, permeability
Description: Permeability of the compound in pH 6.5 incubated for 2 hrs by PAMPA based HPLC analysis
Known Papp at 2 h of a selection of compounds
Number only, in ×10⁻⁶ cm/s; omit the unit.

C[C@@H]1CCN(C(=O)CC#N)C[C@@H]1n1cc(C#N)c2cnc3[nH]ccc3c21 (racemic): 3.8
C[C@@H]1CCN(C(=O)C(C)(C)C#N)C[C@@H]1n1c(=O)[nH]c2cnc3[nH]ccc3c21 (racemic): 6.3
C[C@@H]1CCN(C(=O)N2CCOCC2)C[C@@H]1n1c(=O)[nH]c2cnc3[nH]ccc3c21 (racemic): 1.3
C[C@H]1CCN(C(=O)CC#N)C[C@H]1n1ccc2cnc3[nH]ccc3c21: 21
C[C@@H]1CCN(C(=O)CC#N)C[C@@H]1n1ccc2cnc3[nH]cc(C#N)c3c21 (racemic): 13

// query Please give the documented Papp at 2 h of C[C@@H]1CCN(c2ccc(C#N)cn2)C[C@@H]1n1c(=O)[nH]c2cnc3[nH]ccc3c21 (racemic)
// result 8.8

----------
Known half-life of a selection of compounds
Assay Name: Half life in Sprague-Dawley rat at 1 mg/kg, iv measured up to 24 hrs by LC-MS/MS analysis
Format: ADME, organism-based
Study Conditions: in vivo
Number only, in h; omit the unit.

These recorded examples may help you get a feel for the data.
C[C@@H]1CCN(C(=O)CC#N)C[C@@H]1n1c(=O)[nH]c2cnc3[nH]ccc3c21 (racemic): 1.13
C[C@@H]1CCN(C(=O)CC#N)C[C@@H]1n1ccc2cnc3[nH]ccc3c21: 1.64

Note: attention shifts to another entry.
// query Please give the documented half-life of C[C@@H]1CCN(C(=O)CC#N)C[C@@H]1n1ccc2cnc3[nH]cc(C#N)c3c21
// result 7.86
